tested on: PDE3; assay: Radioenzymatic phosphodiesterase assay: PDE3 inhibition (selectivity); conditions: Table 2; 10 μM test compound; PDE3 of vascular smooth muscle
property: PDE3 percentage of inhibition at 10 μM (%)

COc1ccc(-c2cc3c(cc2OC)N(C)C(=O)CN=C3c2cccc(C(N)=O)c2)cc1 [Example 22] | 22
COc1cc2c(cc1-c1ccccc1Oc1ccccc1)C(c1cccc(C(N)=O)c1)=NCC(=O)N2C [Example 93] | 72
COc1ccc(OC)c(-c2ccc3c(c2)C(c2cccc(C(N)=O)c2)=NCC(=O)N3C)c1 [Example 31] | 0
COc1ccc(C2=NCC(=O)N(C)c3ccc(-c4c(OC)cccc4OC)cc32)cc1 [Example 75] | 4
